test system: foxtail, giant (giant foxtail, Setaria faberii); experiment: Test A greenhouse herbicide test, pre- and postemergence; type: in vivo; conditions: Preemergence, 125 g ai/ha; 0 to 100 scale where 0 is no effect and 100 is complete control
Measured Foxtail, Giant plant response rating by item

>  <Smiles String>
CC(=O)Oc1c(C)nn(C)c(=O)c1-c1c(C)sc2cc(C)cc(C)c12

>  <Foxtail, Giant plant response rating>
0

$$$$
>  <Smiles String>
Cc1cc(C)c2sc(C)c(-c3c(OC(=O)C(C)(C)C)c(C)nn(C)c3=O)c2c1

>  <Foxtail, Giant plant response rating>
0

$$$$
>  <Smiles String>
Cc1nn(C)c(=O)c(-c2c(C)sc3ccccc23)c1O

>  <Foxtail, Giant plant response rating>
60

$$$$
>  <Smiles String>
Cc1cc(C)c2sc(C)c(-c3c(OC(=O)OC(C)C)c(C)nn(C)c3=O)c2c1

>  <Foxtail, Giant plant response rating>
80

$$$$
>  <Smiles String>
COc1nn(C)c(=O)c(-c2c(C)sc3ccc(Cl)cc23)c1OS(C)(=O)=O

>  <Foxtail, Giant plant response rating>
20

$$$$
>  <Smiles String>
COC(=O)Oc1cnn(C)c(=O)c1-c1c(C)ccc2ccccc12

>  <Foxtail, Giant plant response rating>
20

$$$$
>  <Smiles String>
CCC(=O)Oc1c(C)nn(C)c(=O)c1-c1c(C)sc2c(C)cc(C)cc12

>  <Foxtail, Giant plant response rating>
100

$$$$
>  <Smiles String>
Cc1nn(C)c(=O)c(-c2cc(F)cc3ccccc23)c1OS(C)(=O)=O

>  <Foxtail, Giant plant response rating>
30

$$$$
>  <Smiles String>
CCOC(=O)Oc1c(C)nn(C)c(=O)c1-c1c(C)sc2c(C)cc(C)cc12

>  <Foxtail, Giant plant response rating>
100

$$$$
